Test: Intrinsic dissolution rate in pH 2.5 HCl/NaCl aqueous solution
Type: physicochemical
Conditions: 30 min; pH 2.5 HCl/NaCl, 37° C., 0.5 cm^2 pellet
READOUT NAME: Cumulative dissolution (mg)

compound="CC#CC(=O)N1CCC[C@H]1c1nc(-c2ccc(C(=O)Nc3ccccn3)cc2)c2c(N)nccn12 [Form D]" readout_name="Cumulative dissolution" result=6.26
compound="CC#CC(=O)N1CCC[C@H]1c1nc(-c2ccc(C(=O)Nc3ccccn3)cc2)c2c(N)nccn12 [Form CS15]" readout_name="Cumulative dissolution" result=8.86
compound="CC#CC(=O)N1CCC[C@H]1c1nc(-c2ccc(C(=O)Nc3ccccn3)cc2)c2c(N)nccn12 [Form I in WO2017002095A1, reference compound]" readout_name="Cumulative dissolution" result=5.58
compound="CC#CC(=O)N1CCC[C@H]1c1nc(-c2ccc(C(=O)Nc3ccccn3)cc2)c2c(N)nccn12 [Form F]" readout_name="Cumulative dissolution" result=7.26
compound="CC#CC(=O)N1CCC[C@H]1c1nc(-c2ccc(C(=O)Nc3ccccn3)cc2)c2c(N)nccn12 [Form A]" readout_name="Cumulative dissolution" result=6.72
compound="CC#CC(=O)N1CCC[C@H]1c1nc(-c2ccc(C(=O)Nc3ccccn3)cc2)c2c(N)nccn12 [Form G]" readout_name="Cumulative dissolution" result=6.71

Hey, just so you know, these numbers are from patent US11091494B2.
